Molecular target: GAL4 fused to the LBD of RORα (Homo sapiens)
Construct: cells expressing GAL4 fused to the LBD of ROR α or β, respectively
Sequence (P35398 272-510 limits assumed): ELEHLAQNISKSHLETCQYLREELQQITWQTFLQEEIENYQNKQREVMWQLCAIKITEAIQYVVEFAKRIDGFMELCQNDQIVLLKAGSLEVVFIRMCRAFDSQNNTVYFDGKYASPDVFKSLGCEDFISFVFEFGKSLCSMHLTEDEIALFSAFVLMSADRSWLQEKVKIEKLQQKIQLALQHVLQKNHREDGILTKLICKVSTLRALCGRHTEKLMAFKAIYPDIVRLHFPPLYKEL
Test: GAL4 cellular luciferase reporter assay, GAL4 fused to LBD of RORα
Conditions: GAL4 cell assay, RORα; N = 2
pIC50: −log10 of the molar value.
value.type: pIC50

// query For the compound CCN1C(=O)C(C)(C)COc2cc(N(CC(F)(F)F)S(=O)(=O)c3ccc(C)c(C)c3)ccc21 [BIO399] , what pIC50 is on record?
// result < 5.00

* * *

molecular target: RORγ (Homo sapiens); construct: sub-cloning residues 259 to 518 of a human RORγ cDNA; GST (PreScission site) (N); assay: FRET based assay monitoring coactivator peptide TRAP220 recruitment to RORγ; details: inverse agonist; inhibition of coactivator recruitment in the authors' FRET assay
Sequence (P51449 259-518): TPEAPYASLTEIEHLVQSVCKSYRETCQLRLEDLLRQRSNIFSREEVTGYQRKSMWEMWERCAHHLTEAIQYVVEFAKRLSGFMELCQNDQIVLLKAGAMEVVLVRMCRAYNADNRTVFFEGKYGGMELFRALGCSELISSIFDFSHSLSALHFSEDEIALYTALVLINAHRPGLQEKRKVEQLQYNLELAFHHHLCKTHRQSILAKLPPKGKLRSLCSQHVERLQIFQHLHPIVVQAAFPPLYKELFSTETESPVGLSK
value.type: IC50 (nM)
Quick note: give the figure in nM, leave out the unit.

// query For the compound CCN1C(=O)C(C)(C)COc2cc(N(CC(F)(F)F)S(=O)(=O)c3ccc(C)c(C)c3)ccc21 [BIO399] , what IC50 is on record?
// result 4.7

* * *

molecular target: RORγ-GAL4 fusion (Homo sapiens); construct: expressed in transfected cells; assay: GAL4 cellular luciferase reporter assay, RORγ-GAL4 fusion; assay type: cell-based; conditions: luciferase activity, cells expressing RORγ-GAL4 fusion
Sequence (P51449 269-508 limits assumed): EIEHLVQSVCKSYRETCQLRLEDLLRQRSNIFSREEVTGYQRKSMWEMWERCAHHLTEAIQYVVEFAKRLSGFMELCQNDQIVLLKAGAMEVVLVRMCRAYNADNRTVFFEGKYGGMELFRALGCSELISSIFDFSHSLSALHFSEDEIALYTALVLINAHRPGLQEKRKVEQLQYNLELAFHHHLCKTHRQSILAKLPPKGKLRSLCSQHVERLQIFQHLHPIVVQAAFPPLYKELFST
value.type: IC50 (nM)
Quick note: give the figure in nM, leave out the unit.

// query For the compound CCN1C(=O)C(C)(C)COc2cc(N(CC(F)(F)F)S(=O)(=O)c3ccc(C)c(C)c3)ccc21 [BIO399] , what IC50 is on record?
// result 42.5
